System Tested: V599E Braf kinase (Homo sapiens, UniProt P15056, V600E)
Construct: 6×His-tag (N); made in house; host or cells: Sf9 insect cells (baculovirus)
Sequence (P15056 with tags, fused parts or gaps V600E): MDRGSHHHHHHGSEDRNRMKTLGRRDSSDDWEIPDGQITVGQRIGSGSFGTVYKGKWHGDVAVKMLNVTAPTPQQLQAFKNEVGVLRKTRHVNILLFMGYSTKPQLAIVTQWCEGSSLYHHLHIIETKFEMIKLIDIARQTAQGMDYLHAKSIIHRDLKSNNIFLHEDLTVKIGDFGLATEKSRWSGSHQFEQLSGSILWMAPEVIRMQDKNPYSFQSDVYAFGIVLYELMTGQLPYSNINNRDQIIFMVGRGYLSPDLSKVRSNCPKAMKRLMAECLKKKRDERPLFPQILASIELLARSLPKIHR
Protocol Notes: Thermal denaturation of oncogenic V599E Braf kinase
Format: binding
Recorded Conditions: 1.4 μM V599E Braf kinase, 20 μM small molecule; read-out: ΔTm (° C.) relative to unphosphorylated B-Raf(V599E)
Measured Quantity: ΔTm at 20 µM (°C)
Give bare numbers, in °C.

Please review the entries below; each comes with its answer.
CNC(=O)Cc1cccc(-n2nc(C(C)(C)C)cc2NC(=O)Nc2cccc(Cl)c2Cl)c1    12
CC(C)(C)c1cc(NC(=O)Nc2cccc(Cl)c2Cl)n(-c2ccc3c(c2)CCNC3=O)n1    13.5
CC(C)(C)c1cc(NC(=O)Nc2cccc(Cl)c2Cl)n(-c2ccc3c(c2)CCNC3)n1    15.8
CC(C)(C)c1cc(NC(=O)Nc2ccc(Cl)cc2)n(-c2cccc(CO)c2)n1    2.9
CC(C)(C)c1cc(NC(=O)Nc2cccc(Cl)c2Cl)n(-c2ccc3c(c2)CN(S(C)(=O)=O)CC3)n1    14.6
CC(C)(C)c1cc(NC(=O)Nc2cccc3ccccc23)n(-c2cccc(C(C)(C)O)c2)n1    14.9

Kindly give each listed record's ΔTm at 20 µM.
1. CC(C)(C)c1cc(NC(=O)Nc2cccc(Cl)c2Cl)n(-c2ccc3c(c2)CCC(=O)N3)n1
2. CC(C)(C)c1cc(NC(=O)Nc2cccc(Cl)c2Cl)n(-c2ccc(CC(N)=O)cc2)n1

Marked response:
1: 17.3; 2: 12.5
